Biological target: T1, Human soluble IL-6R (human, UniProt P08887 20-358)
T1 construct: Soluble recombinant form; biotinylated in some assays; also called hIL-6R; human IL-6R
T1 sequence (looked up): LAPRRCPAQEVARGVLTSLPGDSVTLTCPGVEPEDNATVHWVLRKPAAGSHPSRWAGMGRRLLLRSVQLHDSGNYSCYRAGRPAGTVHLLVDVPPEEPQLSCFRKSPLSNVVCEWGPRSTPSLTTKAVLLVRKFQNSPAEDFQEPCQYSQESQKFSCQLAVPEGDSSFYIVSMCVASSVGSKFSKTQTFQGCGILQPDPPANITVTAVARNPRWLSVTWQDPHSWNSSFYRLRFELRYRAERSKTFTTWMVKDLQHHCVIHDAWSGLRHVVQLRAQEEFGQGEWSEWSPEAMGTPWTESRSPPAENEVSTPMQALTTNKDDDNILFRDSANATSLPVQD
Test: inhibition of the IL-6/IL-6R interaction, summary table C-13
Could you please report measured IC50 for the items listed next?
One number for each entry, in nM.

IL6R12 (VHH, also called PMP35F4; not shown: C-terminal c-myc and (His)6 tags) VHH: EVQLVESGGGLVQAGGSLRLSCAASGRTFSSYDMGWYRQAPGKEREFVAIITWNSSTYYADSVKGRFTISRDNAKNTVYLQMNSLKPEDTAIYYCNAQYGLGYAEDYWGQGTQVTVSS    0.52

Look up IC50 for the entries below, preserving their order.
1. IL6R03 (VHH, also called PMP31A4; not shown: C-terminal c-myc and (His)6 tags) VHH: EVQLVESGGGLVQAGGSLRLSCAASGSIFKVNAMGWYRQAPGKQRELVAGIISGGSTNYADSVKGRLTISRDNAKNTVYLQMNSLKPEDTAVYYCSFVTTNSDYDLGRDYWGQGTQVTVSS
2. IL6R01 (VHH, also called PMP28E11; not shown: C-terminal c-myc and (His)6 tags) VHH: EVQLVESGGGLVQPGGSLRLSCAASGFPLDYYAIGWFRQAPGKEREGVSCISSSDGSTYYADSVKGRFTISRDNAKNTVYLQMNSLKPEDTAVYYCALVHTTAQATGVPQREYEYEWWGQGTQVTVSS
3. IL6R14 (VHH, also called PMP40H5; not shown: C-terminal c-myc and (His)6 tags) VHH: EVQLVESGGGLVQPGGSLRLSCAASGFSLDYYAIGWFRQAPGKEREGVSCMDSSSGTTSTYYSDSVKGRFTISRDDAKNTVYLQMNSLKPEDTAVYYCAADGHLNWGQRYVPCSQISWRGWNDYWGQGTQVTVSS

0.72
0.73
0.22

Data credit: patent US20120077731A1
